Target: UniProtKB Q92769
Sequence (Q92769 whole entry): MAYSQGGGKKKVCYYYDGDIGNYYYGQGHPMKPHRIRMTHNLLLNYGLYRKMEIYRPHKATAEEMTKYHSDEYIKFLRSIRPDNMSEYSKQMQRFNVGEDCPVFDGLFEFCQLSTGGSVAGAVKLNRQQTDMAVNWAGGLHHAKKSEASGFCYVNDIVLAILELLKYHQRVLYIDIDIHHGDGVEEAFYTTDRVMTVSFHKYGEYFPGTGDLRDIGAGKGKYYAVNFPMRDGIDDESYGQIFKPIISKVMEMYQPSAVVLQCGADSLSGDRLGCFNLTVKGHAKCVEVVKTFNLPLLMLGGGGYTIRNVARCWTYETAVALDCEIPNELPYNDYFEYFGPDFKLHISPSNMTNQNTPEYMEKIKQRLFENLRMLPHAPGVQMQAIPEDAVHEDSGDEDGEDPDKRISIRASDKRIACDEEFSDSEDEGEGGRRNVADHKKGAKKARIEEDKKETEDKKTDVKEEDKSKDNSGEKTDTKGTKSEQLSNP
Test: Inhibition of human recombinant HDAC2 using fluorogenic HDAC substrate after 15 mins by fluorimetrc method
ENDPOINT: Ki (nM)

COc1ccc(Nc2c(NCCCCCC(=O)NO)c(=O)c2=O)cc1 :: 3.1

[I] CC(C)(CCCCC(=O)NO)Nc1c(Nc2ccc(C(F)(F)F)cc2)c(=O)c1=O
[II] CC(Nc1c(NCCCCCC(=O)NO)c(=O)c1=O)C12CC3CC(CC(C3)C1)C2 (stereo not drawn)
Q: Which of the two gives a bigger number for Ki: I or II ? Selection: enter the item's label.
Ans: II
(II: 130 nM, I: 23 nM)

Provenance of the data: ChEMBL document CHEMBL4229543
